# tgt: KRAS G12S (Homo sapiens, UniProt P01116+P62937, G12S)
# Sequence (P01116 1-169 isoform P01116-2 G12S limits assumed): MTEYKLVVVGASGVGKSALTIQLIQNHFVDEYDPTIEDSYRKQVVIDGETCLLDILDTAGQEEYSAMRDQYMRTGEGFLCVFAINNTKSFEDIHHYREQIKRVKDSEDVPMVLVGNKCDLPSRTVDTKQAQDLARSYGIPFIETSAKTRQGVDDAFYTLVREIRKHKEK
# Sequence (P62937 whole entry): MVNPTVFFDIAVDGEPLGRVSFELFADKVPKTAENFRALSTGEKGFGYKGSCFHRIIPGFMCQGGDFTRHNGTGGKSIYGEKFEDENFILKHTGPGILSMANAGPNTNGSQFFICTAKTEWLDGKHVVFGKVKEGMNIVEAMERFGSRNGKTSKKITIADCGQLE
# measurement-description: Ras-Raf disruption / FRET / MOA assay (BRAF RBD)
# Assay type: biochemical
# details: Ras-Raf disruption, with Cyclophilin A; read-out: KRAS G12S FRET data IC50
measured-property: IC50

Asked: Answer with the recorded IC50 of CCn1c(-c2cccnc2[C@H](C)OC)c2c3cc(ccc31)-c1csc(n1)C[C@H](NC(=O)[C@H](C(C)C)N(C)C(=O)N1CCN(C(=O)[C@@H]3CN3)CC1)C(=O)N1CCC[C@H](N1)C(=O)OCC(C)(C)C2 [Example 168] only.
Given back: 10 to 100 nM

Asked: Answer with the recorded IC50 of CCn1c(-c2cccnc2[C@H](C)OC)c2c3cc(ccc31)-c1cc(O)cc(c1)C[C@H](NC(=O)[C@H](C(C)C)N1CCC3(CN(C(=O)[C@@H]4CN4)C3)C1=O)C(=O)N1CCC[C@H](N1)C(=O)OCC(C)(C)C2 [Example 109] only.
Given back: 100 to 1000 nM

----------
# tgt: KRAS G12D (Homo sapiens, UniProt P01116+P62937, G12D)
# Sequence (P01116 1-169 isoform P01116-2 G12D limits assumed, one chain of several): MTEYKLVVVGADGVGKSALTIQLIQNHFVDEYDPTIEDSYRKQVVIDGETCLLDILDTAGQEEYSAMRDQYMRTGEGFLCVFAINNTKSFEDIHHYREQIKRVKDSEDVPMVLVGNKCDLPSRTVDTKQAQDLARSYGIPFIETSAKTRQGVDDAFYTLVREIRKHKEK
# measurement-description: Ras-Raf disruption / FRET / MOA assay (BRAF RBD)
# Type: biochemical
# details: KRAS G12D FRET data IC50, Ras-Raf disruption, with Cyclophilin A
measured-property: IC50

Asked: Answer with the recorded IC50 of CCn1c(-c2cccnc2[C@H](C)OC)c2c3cc(ccc31)-c1cc(O)cc(c1)C[C@H](NC(=O)[C@H](C(C)C)N(C)C(=O)C13CC(CN1C(=O)[C@@H]1CN1)C3)C(=O)N1CCC[C@H](N1)C(=O)OCC(C)(C)C2 only.
Given back: 100 to 1000 nM

Asked: Answer with the recorded IC50 of CCn1c(-c2cccnc2[C@H](C)OC)c2c3cc(ccc31)-c1cc(O)cc(c1)C[C@H](NC(=O)[C@H](C(C)C)N(C)C(=O)CN(C)C(=O)[C@@H]1CN1CCCOC)C(=O)N1CCC[C@H](N1)C(=O)OCC(C)(C)C2 (stereo partly shown) only.
Given back: 10 to 100 nM

Asked: Answer with the recorded IC50 of CCn1c(-c2cccnc2[C@H](C)OC)c2c3cc(ccc31)-c1cc(O)cc(c1)C[C@H](NC(=O)[C@H](C(C)C)N(C)C(=O)CN(C)C(=O)[C@H]1N[C@@H]1C1COC1)C(=O)N1CCC[C@H](N1)C(=O)OCC(C)(C)C2 only.
Given back: 10 to 100 nM

Asked: Answer with the recorded IC50 of CCn1c(-c2cccnc2[C@H](C)OC)c2c3cc(ccc31)-c1cc(O)cc(c1)C[C@H](NC(=O)[C@H](C(C)C)N(C)C(=O)[C@]13C[C@H]1CCN3C(=O)[C@@H]1CN1)C(=O)N1CCC[C@H](N1)C(=O)OCC(C)(C)C2 only.
Given back: 100 to 1000 nM

----------
# tgt: KRAS G12D (Homo sapiens, UniProt P01116+P62937, G12D)
# measurement-description: Disruption of BRAF RBD interaction with Ras (FRET / MOA assay, with Cyclophilin A)
# Assay type: biochemical
# details: read-out: KRAS G12D FRET data, IC50
What IC50 was measured for each of the following?

Asked: Answer with the recorded IC50 of CCn1c(-c2cccnc2[C@H](C)OC)c2c3cc(ccc31)-c1csc(n1)C[C@H](NC(=O)[C@H](C(C)C)N(C)C(=O)N(C)C1CN(C(=O)/C=C/C(C)(C)O)C1)C(=O)N1CCC[C@H](N1)C(=O)OCC(C)(C)C2 (atropisomer, axis not shown) only.
Given back: 1 to 10 µM

Asked: Answer with the recorded IC50 of C=CC(=O)N1CC[C@H](C(=O)N(C)[C@H](C(=O)N[C@H]2Cc3cc(O)cc(c3)-c3ccc4c(c3)c(c(-c3c(CCOC)cccc3OC)n4CC)CC(C)(C)COC(=O)[C@@H]3CCCN(N3)C2=O)C(C)C)C1 only.
Given back: > 10 µM

Asked: Answer with the recorded IC50 of CCn1c(-c2cccnc2[C@H](C)OC)c2c3cc(ccc31)-c1csc(n1)C[C@H](NC(=O)[C@H](C1CCCC1)N(C)C(C)=O)C(=O)N1CCC[C@H](N1)C(=O)OCC(C)(C)C2 only.
Given back: > 10 µM

Asked: Answer with the recorded IC50 of CCn1c(-c2cc(C3CCN(C)CC3)cnc2[C@H](C)OC)c2c3cc(ccc31)-c1csc(n1)C[C@H](NC(=O)[C@H](C(C)C)N(C)C(=O)N1CCOCC1)C(=O)N1CCC[C@H](N1)C(=O)OCC(C)(C)C2 (atropisomer, axis not shown) only.
Given back: 0.1 to 1 µM

----------
# tgt: NRAS WT (Homo sapiens, UniProt P01111+P62937)
# Sequence (P01111 whole entry): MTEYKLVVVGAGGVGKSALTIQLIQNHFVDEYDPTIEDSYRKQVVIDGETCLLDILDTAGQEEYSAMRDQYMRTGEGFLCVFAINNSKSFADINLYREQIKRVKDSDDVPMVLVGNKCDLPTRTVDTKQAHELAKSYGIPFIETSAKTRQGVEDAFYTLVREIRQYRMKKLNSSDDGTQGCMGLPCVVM
# Sequence (P62937 whole entry): as the sequence (P62937 whole entry) above
# measurement-description: Ras-Raf disruption / FRET / MOA assay (BRAF RBD)
# Format: biochemical
pIC50: −log10 of the molar value.
What pIC50 was measured for each of the following?

Asked: Answer with the recorded pIC50 of CCn1c(-c2cccnc2[C@H](C)OC)c2c3cc(ccc31)-c1cc(O)cc(c1)C[C@H](NC(=O)[C@H](C(C)C)N(C)C(=O)CN(C)C(=O)[C@@H]1CN1CC(=O)N(C)C)C(=O)N1CCC[C@H](N1)C(=O)OCC(C)(C)C2 (some centres unmarked) only.
Given back: 6.00 to 7.00

Asked: Answer with the recorded pIC50 of CCn1c(-c2cc(N3CCN(C)CC3)cnc2[C@H](C)OC)c2c3cc(ccc31)-c1cc(O)cc(c1)C[C@H](NC(=O)[C@H](C1CCCC1)N(C)C(=O)CN(C)C(=O)[C@@H]1N[C@@H]1C1CC1)C(=O)N1CCC[C@H](N1)C(=O)OCC(C)(C)C2 only.
Given back: > 8.00

Asked: Answer with the recorded pIC50 of CCn1c(-c2cccnc2[C@H](C)OC)c2c3cc(ccc31)-c1cc(O)cc(c1)C[C@H](NC(=O)[C@H](C(C)C)N(C)C(=O)CN(C)C(=O)[C@H]1CN1CCCN1CCOC1=O)C(=O)N1CCC[C@H](N1)C(=O)OCC(C)(C)C2 (some centres unmarked) only.
Given back: 7.00 to 8.00

Asked: Answer with the recorded pIC50 of CCn1c(-c2cccnc2[C@H](C)OC)c2c3cc(ccc31)-c1cc(O)cc(c1)C[C@H](NC(=O)[C@H](C(C)C)N(C)C(=O)CN(C)C(=O)[C@H]1N[C@@H]1C(F)(F)F)C(=O)N1CCC[C@H](N1)C(=O)OCC(C)(C)C2 only.
Given back: 7.00 to 8.00

Asked: Answer with the recorded pIC50 of CCn1c(-c2cccnc2[C@H](C)OC)c2c3cc(ccc31)-c1cc(O)cc(c1)C[C@H](NC(=O)[C@H](C(C)C)N(C)C(=O)CN(C)C(=O)[C@@H]1CN1CC1COC1)C(=O)N1CCC[C@H](N1)C(=O)OCC(C)(C)C2 (some centres unmarked) only.
Given back: 7.00 to 8.00

Asked: Answer with the recorded pIC50 of CCn1c(-c2cccnc2[C@H](C)OC)c2c3cc(ccc31)-c1cc(O)cc(c1)C[C@H](NC(=O)[C@H](C1CCCC1)N(C)C(=O)CN(C)C(=O)[C@@H]1N[C@@H]1C1CC1)C(=O)N1CCC[C@H](N1)C(=O)OCC(C)(C)C2 only.
Given back: 7.00 to 8.00

Asked: Answer with the recorded pIC50 of CCn1c(-c2cccnc2[C@H](C)OC)c2c3cc(ccc31)-c1cc(O)cc(c1)C[C@H](NC(=O)[C@H](C(C)C)N(C)C(=O)CN(C)C(=O)[C@H]1CN1CCCC#N)C(=O)N1CCC[C@H](N1)C(=O)OCC(C)(C)C2 (some centres unmarked) only.
Given back: 7.00 to 8.00

Asked: Answer with the recorded pIC50 of CCn1c(-c2cccnc2[C@H](C)OC)c2c3cc(ccc31)-c1cc(O)cc(c1)C[C@H](NC(=O)[C@H](C(C)C)N(C)C(=O)CN(C)C(=O)[C@H]1CN1CC1(C)COC1)C(=O)N1CCC[C@H](N1)C(=O)OCC(C)(C)C2 (some centres unmarked) only.
Given back: 7.00 to 8.00

----------
# System: NCI-H358 (K-Ras G12C)
# measurement-description: CellTiter-Glo cell viability assay, 5-day treatment
# Format: cell-based
# details: Homo sapiens, NCI-H358, 120 h, 5-day treatment; read-out: H358 Cell Viability assay data (K-Ras G12C, IC50)
# Procedure: Protocol: CellTiter-Glo® Cell Viability Assay Note—The following protocol describes a procedure for monitoring cell viability of K-Ras mutant cancer cell lines in response to a compound of the invention. […] Test compounds (132.5 nL) were directly dispensed into the assay plates containing cells. […] Luminescence was measured using the PerkinElmer Enspire. […] Test compounds (132.5 nl) were directly dispensed into the assay plates containing cells. […] Luminescence was measured using the PerkinElmer Enspire. […]
measured-property: IC50

Asked: Answer with the recorded IC50 of CCn1c(-c2cccnc2[C@H](C)OC)c2c3cc(ccc31)-c1csc(n1)C[C@H](NC(=O)[C@H](C(C)C)N(C)C(=O)N1CCOC[C@@H]1c1ccccc1)C(=O)N1CCC[C@H](N1)C(=O)OCC(C)(C)C2 only.
Given back: 100 to 1000 nM

Asked: Answer with the recorded IC50 of CCn1c(-c2cnccc2COC)c2c3cc(ccc31)-c1cc(O)cc(c1)C[C@H](NC(=O)[C@H](C(C)C)N(C)C(=O)[C@H]1CCN(C(=O)OC)C1)C(=O)N1CCC[C@H](N1)C(=O)OCC(C)(C)C2 only.
Given back: 100 to 1000 nM

Asked: Answer with the recorded IC50 of CCn1c(-c2cnccc2COC)c2c3cc(ccc31)-c1cc(O)cc(c1)C[C@H](NC(=O)[C@H](C(C)C)N(C)C(=O)[C@H]1CCCO1)C(=O)N1CCC[C@H](N1)C(=O)OCC(C)(C)C2 only.
Given back: 100 to 1000 nM

Asked: Answer with the recorded IC50 of CCn1c(-c2cc(N3CCN(C)CC3)cnc2[C@H](C)OC)c2c3cc(ccc31)-c1csc(n1)C[C@H](NC(=O)[C@H](C1CCCC1)N(C)C(=O)N(C)C)C(=O)N1CCC[C@H](N1)C(=O)OCC(C)(C)C2 (atropisomer, axis not shown) only.
Given back: < 10 nM
